assay protocol: TOR pathway GLN3 branch reporter MEP2-GFP changes – S. cerevisiae, multiplex flow cytometry, primary screen (AID 1867);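 note: median GFP channel fluorescence of barcode-gated MEP2-GFP cells measured by flow cytometry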
condition set: S. cerevisiae MEP2-GFP strain, 3 h, at 10 µM, hits give high values, 100% means same as DMSO wells
Records with an inconclusive call do not appear.
property name: GFP response vs DMSO (%)
The figure you give is taken to be in %; do not add the unit.

{"molecule": "CCNC(=O)c1c(N)sc2c1CCCCC2", "measurement": 96.3}
{"molecule": "CNc1c2c(nn1C)CCCC2", "measurement": 97.7}
{"molecule": "COc1ccc(C(=O)COc2ccc(F)cc2)c(O)c1", "measurement": 98.3}
{"molecule": "O=C1CCCN1C(=O)CCC(=O)N1CCCC1=O", "measurement": 95.1}
{"molecule": "C[C@H](CCC(=O)O)[C@H]1CC[C@H]2[C@@H]3C(=O)C[C@@H]4CC(=O)CC[C@]4(C)[C@H]3CC(=O)[C@]12C", "measurement": 105}
{"molecule": "O=C(NC(=S)N1CCCCC1)c1cccnc1", "measurement": 95.1}
{"molecule": "CCn1nc(C(=O)O)c(=O)c2cc3c(cc21)OCO3", "measurement": 104}
{"molecule": "CCOc1ccc(C(=O)C(C)=O)c(OCC)c1", "measurement": 99.7}
{"molecule": "COC(=O)c1cc(Br)c(=O)n(CCc2ccc(O)cc2)c1", "measurement": 109}
{"molecule": "O=C(c1ccco1)N(CCC(c1ccccc1)c1ccco1)Cc1ccco1 (stereo unspecified)", "measurement": 95.2}

Now consider the entry below.
GFP response vs DMSO reported for this molecule COc1ccc2cc(C3(C)NC(=O)NC3=O)ccc2c1 (stereo unspecified) : 116
